- Test system: Trichophyton rubrum (T. rubrum) ATCC10218
- assay-comment: Antifungal activity test against dermatophytes (MIC)
- Format: cell-based
- assay-conditions: 80% growth inhibiting concentration, RPMI1640/MOPS, 28° C., 4 days, WST8
observable: MIC (T. rubrum)

These recorded examples may help you get a feel for the data.
smi=Cc1cc(C(F)(F)F)nn1-c1ccccc1O observable="MIC (T. rubrum)" observed_value="D (>32-64 μg/ml)"
smi=CC(=O)Oc1ccc(-n2nc(C)cc2C)c(O)c1 observable="MIC (T. rubrum)" observed_value="B (4-16 μg/ml)"
smi=Cc1nn(-c2ccc(C(=O)O)cc2O)c(C)c1C observable="MIC (T. rubrum)" observed_value="D (>32-64 μg/ml)"
smi=Cc1cc(C)n(-c2ccc(Br)cc2O)n1 observable="MIC (T. rubrum)" observed_value="A (≤2 μg/ml)"

Query block: Identify measured MIC (T. rubrum) associated with `CCc1cc(CC)n(-c2ccccc2O)n1`
Result block: B (4-16 μg/ml)

Query block: Given `Cc1cc(C)n(-c2c(O)cccc2O)n1` , respond with its MIC (T. rubrum).
Result block: D (>32-64 μg/ml)

Query block: // Input: `Cc1cc(C)n(-c2cc(Cl)ccc2O)n1` . Output its MIC (T. rubrum) only.
Result block: D (>32-64 μg/ml)

* * *

- System: Trichophyton mentagrophytes (T. mentagrophytes) ATCC18748
- assay-comment: Antifungal activity test against dermatophytes (MIC)
- Assay type: cell-based
- assay-conditions: 80% growth inhibiting concentration, RPMI1640/MOPS, 28° C., 3 days, WST8
observable: MIC (T. mentagrophytes)

smi=CCc1cc(CC)n(-c2ccccc2O)n1 observable="MIC (T. mentagrophytes)" observed_value="B (2 to 8 μg/ml)"
smi=Cc1nn(-c2ccc(Cl)cc2O)c(C)c1C observable="MIC (T. mentagrophytes)" observed_value="A (≤1 μg/ml)"
smi=Cc1cc(C)n(-c2cc(Cl)ccc2O)n1 observable="MIC (T. mentagrophytes)" observed_value="C (16 to 32 μg/ml)"
smi=CCCCc1c(C)nn(-c2ccccc2O)c1C observable="MIC (T. mentagrophytes)" observed_value="A (≤1 μg/ml)"
smi=CC(=O)Oc1ccc(-n2nc(C)c(Cl)c2C)c(O)c1 observable="MIC (T. mentagrophytes)" observed_value="B (2 to 8 μg/ml)"

Query block: Provide MIC (T. mentagrophytes) value for the following compound: `Cc1cc(C)n(-c2ccc([N+](=O)[O-])cc2O)n1`
Result block: B (2 to 8 μg/ml)

Query block: Report measured MIC (T. mentagrophytes); entry is `Cc1nn(-c2ccc(Br)cc2O)c(C)c1C`
Result block: A (≤1 μg/ml)

Query block: Input `Cc1cc(C(F)(F)F)nn1-c1ccccc1O` , output reported MIC (T. mentagrophytes).
Result block: C (16 to 32 μg/ml)

Query block: Identify MIC (T. mentagrophytes) associated with the compound `CC(=O)Oc1ccc(-n2nc(C)c(C)c2C)c(O)c1`
Result block: B (2 to 8 μg/ml)

* * *

- Test system: Trichophyton rubrum (T. rubrum) ATCC10218
- assay-comment: Antifungal activity test against dermatophytes (MIC)
- Type: cell-based
- assay-conditions: 80% growth inhibiting concentration, RPMI1640/MOPS, 28° C., 4 days, WST8
observable: MIC (T. rubrum)

Guide cases for MIC (T. rubrum), answers given:
smi=Cc1cc(C)n(-c2ccc(O)cc2O)n1 observed_value="A (≤2 μg/ml)"
smi=Cc1cc(C)n(-c2ccc(CO)cc2O)n1 observed_value="B (4-16 μg/ml)"
smi=Cc1nn(-c2ccc(F)cc2O)c(C)c1Cl observed_value="B (4-16 μg/ml)"
smi=CC(=O)Oc1ccc(-n2nc(C)c(C)c2C)c(O)c1 observed_value="B (4-16 μg/ml)"
smi=Cc1cc(C)n(-c2ccccc2O)n1 observed_value="B (4-16 μg/ml)"
smi=Cc1nn(-c2ccccc2O)c(C)c1C observed_value="A (≤2 μg/ml)"

Query block: Give the value of MIC (T. rubrum) reported for the following: `Cc1cc(C)n(-c2ccc(Cl)cc2O)n1`
Result block: A (≤2 μg/ml)

Query block: Annotate the compound `Cc1nn(-c2ccc(Br)cc2O)c(C)c1Cl` with its measured MIC (T. rubrum).
Result block: A (≤2 μg/ml)

Query block: Report MIC (T. rubrum) for `Cc1nn(-c2ccccc2O)c(C)c1Cl`
Result block: B (4-16 μg/ml)

* * *

- System: Trichophyton mentagrophytes (T. mentagrophytes) ATCC18748
- assay-comment: Antifungal activity test against dermatophytes (MIC)
- Assay type: cell-based
- assay-conditions: 80% growth inhibiting concentration, RPMI1640/MOPS, 28° C., 3 days, WST8
observable: MIC (T. mentagrophytes)

Worked examples follow.
compound="CCc1ccc(-n2nc(C)cc2C)c(O)c1 [compound 52]" observable="MIC (T. mentagrophytes)" observed_value="A (≤1 μg/ml)"
compound="Cc1cc(C)n(-c2ccc(CO)cc2O)n1 [compound 47]" observable="MIC (T. mentagrophytes)" observed_value="B (2 to 8 μg/ml)"
compound="Cc1cc(C)n(-c2cc(Cl)c(C)cc2O)n1 [compound 61]" observable="MIC (T. mentagrophytes)" observed_value="C (16 to 32 μg/ml)"
compound="Cc1nn(-c2ccc(F)cc2O)c(C)c1C [compound 18]" observable="MIC (T. mentagrophytes)" observed_value="B (2 to 8 μg/ml)"
compound="Cc1nn(-c2ccc(N)cc2O)c(C)c1C [compound 34]" observable="MIC (T. mentagrophytes)" observed_value="B (2 to 8 μg/ml)"

Query block: Please give the documented MIC (T. mentagrophytes) of Cc1cc(C)n(-c2ccc(C(N)=O)cc2O)n1 [compound 39]
Result block: C (16 to 32 μg/ml)

Query block: Given the compound Cc1nn(-c2ccccc2O)c(C)c1F [compound 53] , write its reported MIC (T. mentagrophytes).
Result block: B (2 to 8 μg/ml)

Query block: Supply measured MIC (T. mentagrophytes) of Cc1cc(C)n(-c2ccc(N)cc2O)n1 [compound 31] in your reply.
Result block: B (2 to 8 μg/ml)

Query block: For Cc1ccnn1-c1ccccc1O [compound 8] , write its MIC (T. mentagrophytes).
Result block: C (16 to 32 μg/ml)

Query block: Give reported MIC (T. mentagrophytes) value for Cc1nn(-c2cc(F)ccc2O)c(C)c1C [compound 20]
Result block: C (16 to 32 μg/ml)

Query block: Return value of MIC (T. mentagrophytes) for input Cc1cc(C)n(-c2ccc(O)cc2O)n1 [compound 33] , no commentary.
Result block: B (2 to 8 μg/ml)

Query block: Please report the measured MIC (T. mentagrophytes) for Cc1nn(-c2ccc(F)cc2O)c(C)c1Cl [compound 21]
Result block: A (≤1 μg/ml)

Query block: Look up and state reported MIC (T. mentagrophytes) for Cc1cc(C)n(-c2ccc(Br)cc2O)n1 [compound 54]
Result block: A (≤1 μg/ml)

Query block: Report MIC (T. mentagrophytes) for Cc1ccn(-c2ccccc2O)n1 [compound 7]
Result block: C (16 to 32 μg/ml)

Query block: State its MIC (T. mentagrophytes): CC(=O)Oc1ccc(-n2nc(C)cc2C)c(O)c1 [compound 57]
Result block: B (2 to 8 μg/ml)

Query block: Given the compound COC(=O)c1ccc(-n2nc(C)cc2C)c(O)c1 [compound 35] , write its reported MIC (T. mentagrophytes).
Result block: C (16 to 32 μg/ml)

Query block: Return value of MIC (T. mentagrophytes) for input Oc1ccccc1-n1nc(C(F)(F)F)cc1C(F)(F)F [compound 6] , no commentary.
Result block: C (16 to 32 μg/ml)

Query block: Please give measured MIC (T. mentagrophytes) of the following entry: Cc1cc(C)n(-c2cc(O)ccc2O)n1 [compound 16]
Result block: C (16 to 32 μg/ml)

* * *

- Tested on: Trichophyton rubrum (T. rubrum) ATCC10218
- assay-comment: Antifungal activity test against dermatophytes (MIC)
- Assay type: cell-based
- assay-conditions: 80% growth inhibiting concentration, RPMI1640/MOPS, 28° C., 4 days, WST8
observable: MIC (T. rubrum)

smi=Cc1ccc(-n2nc(C)cc2C)c(O)c1 experimental_system="Trichophyton rubrum (T. rubrum) ATCC10218" observable="MIC (T. rubrum)" observed_value="A (≤2 μg/ml)"
smi=Cc1cc(C)n(-c2ccc(C(=O)N(C)C)cc2O)n1 experimental_system="Trichophyton rubrum (T. rubrum) ATCC10218" observable="MIC (T. rubrum)" observed_value="B (4-16 μg/ml)"
smi=CCc1c(C)nn(-c2ccccc2O)c1C experimental_system="Trichophyton rubrum (T. rubrum) ATCC10218" observable="MIC (T. rubrum)" observed_value="A (≤2 μg/ml)"
smi=Cc1ccc(O)c(-n2nc(C)cc2C)c1 experimental_system="Trichophyton rubrum (T. rubrum) ATCC10218" observable="MIC (T. rubrum)" observed_value="D (>32-64 μg/ml)"
smi=CCOC(=O)c1c(C)nn(-c2ccccc2O)c1C experimental_system="Trichophyton rubrum (T. rubrum) ATCC10218" observable="MIC (T. rubrum)" observed_value="D (>32-64 μg/ml)"

Query block: State its MIC (T. rubrum) for this compound: `COC(=O)c1ccc(-n2nc(C)cc2C)c(O)c1`
Result block: C (16-32 μg/ml)

Query block: Note MIC (T. rubrum) for the compound shown: `Cc1cc(C)n(-c2ccc(C(N)=O)cc2O)n1`
Result block: C (16-32 μg/ml)

Origin of measurements: patent US10123978B2
